- Experimental target: SF3b complexes (Homo sapiens, UniProt O75533+Q7RTV0)
- Construct: endogenous in cells; host or cells: Nuclear extracts; A HeLa S3 extract preparation is described for the in vitro splicing assay
- Method description: Scintillation proximity assay (SPA) with [3H]-labelled pladienolide probe
- Format: binding
- Particulars: SF3B1 (WT); geometric mean; read-out: SPA-ATS GMean IC50 (nM) SF3B1 (WT)
Measurement type: IC50 (nM)

[[record]]
molecule = "C/C(=C\\c1cc(F)cc(N2CCCC2=O)c1)[C@H]1OC(=O)C[C@H](O)CC[C@H](C)[C@@H](OC(=O)N2CCN(C)CC2)/C=C/[C@@H]1C [Compound 42]"
measurement_type = "IC50"
reported = 2.92

[[record]]
molecule = "C/C(=C\\c1cc(F)cc(N(C)C2CCS(=O)(=O)CC2)c1)[C@H]1OC(=O)C[C@H](O)CC[C@H](C)[C@@H](OC(=O)N2CCN(C)CC2)/C=C/[C@@H]1C [Compound 172]"
measurement_type = "IC50"
reported = 5.58

[[record]]
molecule = "C/C(=C\\c1cc(F)cc(N2CC[C@@H](F)C2)c1)[C@H]1OC(=O)C[C@H](O)CC[C@H](C)[C@@H](OC(=O)N2CCN(C)CC2)/C=C/[C@@H]1C [Compound 14]"
measurement_type = "IC50"
reported = 2.72


* * *

- Experimental target: SF3b complexes (Homo sapiens, UniProt O75533+Q7RTV0)
- Construct: endogenous in cells; host or cells: Nuclear extracts; A HeLa S3 extract preparation is described for the in vitro splicing assay
- Method description: Scintillation proximity assay (SPA) with [3H]-labelled pladienolide probe
- Format: binding
- Particulars: SF3B1 (WT); geometric mean; read-out: SPA-ATS GMean IC50 (nM) SF3B1 (WT)
- Experimental: Scintillation Proximity Assay (SPA) with [^3-H]-Labelled Pladienolide Probe Batch immobilization of anti-SF3B1 antibody (MBL) to anti-mouse PVT SPA scintillation beads (PerkinElmer) was prepared as follows: for every 2.5 mg of nuclear extracts, 5 μg anti-SF3B1 antibody and 1.5 mg of beads were mixed in 150 μl PBS. […] The mixture was incubated for 30 min, and luminescence signals were read using a MicroBeta2 Plate Counter (PerkinElmer). […]
Measurement type: IC50 (nM)

[[record]]
molecule = "C/C(=C\\c1cc(F)cc(N2CCN(CC3CC3)C2=O)c1)[C@H]1OC(=O)C[C@H](O)CC[C@H](C)[C@@H](OC(=O)N2CCN(C)CC2)/C=C/[C@@H]1C"
experimental_target = "SF3b complexes (Homo sapiens, UniProt O75533+Q7RTV0)"
measurement_type = "IC50"
reported = 3.39

[[record]]
molecule = "C/C(=C\\c1cc(F)cc(N2CCN(C(=O)C3(C)COC3)CC2)c1)[C@H]1OC(=O)C[C@H](O)CC[C@H](C)[C@@H](OC(=O)N2CCN(C)CC2)/C=C/[C@@H]1C"
experimental_target = "SF3b complexes (Homo sapiens, UniProt O75533+Q7RTV0)"
measurement_type = "IC50"
reported = 3.75

[[record]]
molecule = "C/C(=C\\c1cccc(COC(=O)N2CCC3(COC3)C2)c1)[C@H]1OC(=O)C[C@H](O)CC[C@H](C)[C@@H](OC(=O)N2CCN(C)CC2)/C=C/[C@@H]1C"
experimental_target = "SF3b complexes (Homo sapiens, UniProt O75533+Q7RTV0)"
measurement_type = "IC50"
reported = 7.32

[[record]]
molecule = "CC[C@H](O)[C@@H](C)CN1CCN(c2cc(F)cc(/C=C(\\C)[C@H]3OC(=O)C[C@H](O)CC[C@H](C)[C@@H](OC(=O)N4CCN(C)CC4)/C=C/[C@@H]3C)c2)CC1"
experimental_target = "SF3b complexes (Homo sapiens, UniProt O75533+Q7RTV0)"
measurement_type = "IC50"
reported = 3.71

[[record]]
molecule = "C/C(=C\\c1cc(F)cc(N2CCOCC2)c1)[C@H]1OC(=O)C[C@H](O)CC[C@H](C)[C@@H](OC(=O)N2CCC(N(C)C)C2)/C=C/[C@@H]1C (stereo in doubt)"
experimental_target = "SF3b complexes (Homo sapiens, UniProt O75533+Q7RTV0)"
measurement_type = "IC50"
reported = 3.59

